assay: Primary qHTS for inhibitors of nuclear receptor binding SET domain protein 2 (NSD2) in an isogenic RCH-ACV NSD2 p.E1099K mutant (9B) (AID 1645876); details: RCH-ACV (leukaemia line) NSD2 E1099K (9B) viability, CellTiter-Glo, 72 h; series mostly up to 44.9 µM; further: nearly all actives have a fitted effect of over 70% in size
Results filed as inconclusive are left out. Activity calls are given as the source filed them. The call rests on the fitted dose curve; in most records, active means well fitted inhibition curve with a large enough effect; inconclusive means small, poorly fitted or top-dose-only effect; inactive means flat fitted curve, though single readings scatter.
Select the matching outcome among active, inactive

Hi, do you know how CC(=O)O[C@@H]1CC[C@@]2(C)C(CC[C@]3(C)C2[C@H](O)C=C2[C@H]4[C@@H](C)[C@H](C)CC[C@]4(C)CC[C@]23C)[C@@]1(C)C(=O)O (stereo partly drawn) came out in this test? inactive

Please give the result for COc1cc(C(C)C)c(Oc2cnc(N)nc2N)cc1I too. active

Record: CC1(C)CC[C@]2(C(=O)O)[C@H](O)C[C@]3(C)C(=CCC4[C@@]5(C)CC[C@H](O[C@@H]6O[C@H](CO[C@@H]7OC[C@H](O)[C@H](O)[C@H]7O[C@@H]7OC[C@H](O)[C@H](O)[C@H]7O)[C@@H](O)[C@H](O)[C@H]6O)C(C)(C)C5CC[C@]43C)[C@@H]2C1 (stereo partly drawn) active

Next up: CCOC(=O)N1CCC(N2CCC[C@@H](NC(=O)c3ccccc3C)C2)CC1 inactive

Could you do the same for CC1CCC/C=C/C(=O)c2c(O)cc(O)cc2CC(=O)O1 (stereo not drawn) , please? active

Now try CCOC(=O)c1csc(Nc2ccc(Cl)cc2)n1 . active

Please give the result for COc1ccc(CCc2nc3cc(-c4c(C)noc4C)ccc3n2CC(C)N2CCOCC2)cc1Cl (stereo not drawn) too. active

Can you handle CC1(C)CC[C@]2(C(=O)O[C@@H]3O[C@H](CO)[C@@H](O)[C@H](O)[C@H]3O)CC[C@]3(C)C(=CCC4[C@@]5(C)CC[C@H](O[C@@H]6O[C@H](C(=O)O)[C@H](O)[C@H](O)[C@H]6O)C(C)(C)C5CC[C@]43C)[C@@H]2C1 (stereo partly drawn) next? active

What about O=C(NO)c1cnc(N2CCN(S(=O)(=O)c3ccc4ccccc4c3)CC2)nc1 ? active

Follow-up item: COc1ccc(NC(=O)c2ccc(-c3ccc(C(=N)N)cc3C)cc2)cc1N1CCN(C)CC1 inactive

# iterate: CC(C)CCNC(=O)c1ccc2c(c1)nc(Nc1n[nH]c3ccc(-c4ccccc4OC(F)(F)F)cc13)n2C1CCC(O)CC1 (stereo not drawn) active

Then what about the compound C=C1[C@@H](OC(C)=O)CC[C@@]2(C)[C@@H](OC(C)=O)[C@H](OC(C)=O)C3=C(C)C[C@H](OC(=O)C(C)CC)[C@@H]([C@@H](OC(C)=O)[C@H]12)C3(C)C (stereo partly drawn) ? active

// query: Cc1cc(-c2ncc(-c3cccnc3)cc2/C=C/c2ccccc2)cnc1-c1cccnc1 inactive

Next: CC(C)Oc1ccc(-c2cnc3c(-c4ccnc5ccccc45)cnn3c2)cc1 inactive

And C#CCCCn1cc(-c2cccc3c2N[C@H](C)CC(=O)N3)cn1 ? active

Same question for Cc1ccc(-c2c(C(=O)CCl)n(CCCO)c3ncnc(N)c23)cc1 please. active

Try CC1=CC2/C=C(\C)CCC(O)C(=O)C(O)CC(=O)C23C(=O)NC(CC(C)C)C3C1C (stereo not drawn) next. active

COC(=O)C1=COC(O[C@@H]2O[C@H](CO[C@@H]3O[C@H](COC(=O)/C=C\c4ccc(O)cc4)[C@@H](O)[C@H](O)[C@H]3O)[C@@H](O)[C@H](O)[C@H]2O)C2C(CO)=CCC12 (stereo partly drawn) ? inactive

Then what about the compound Cc1cc(-c2cnc(N)c3c(-c4ccc5scnc5c4)csc23)n(C)n1 ? active

Moving on to C=CC(C)(O)CC/C=C(\C)C(=O)OC1C(O)C(CO)OC(OC(=O)C23CCC(C)(C)CC2C2=CCC4C5(C)CCC(OC6OC(COC7OCC(OC(C)=O)C(O)C7OC7OC(COC(C)=O)C(O)C(O)C7OC(C)=O)C(O)C(O)C6OC6OCC(O)C(O)C6O)C(C)(C)C5CCC4(C)C2(C)C(O)C3O)C1OC1OCC(OC2OCC(O)C(OC3OCC(O)C(O)C3O)C2O)C(O)C1O (stereo not drawn) active

Same read-out for O=C(Nc1ccc(CN2CCOCC2)cc1)c1ccc(-c2cccc(Cl)c2)o1 ? active

Moving on to O=C(Nc1nc2cc(C(F)(F)F)cc(NC3CC3)n2n1)c1cccnc1 active

Try Nc1ncnc2c1nc(Cl)n2C1OC2COP(=O)(O)OC2C1O (stereo not drawn) next. active
